Tested on: SR leukemia
Assay info: NCI-60 one-dose screen, 48 h
Experimental setup: 10 µM unless noted
The panel holds about 83,000 compounds, 20% with a hit somewhere; the sample as a whole holds those more often. Calls of active or inactive are those of the source. Rule for the calls: active = growth percent below 10; inactive = the rest.
Classes used: 1 (yes) = active, 0 (no) = inactive

INSERT INTO assay_data (molecular_string, class_assignment) VALUES
  ('NC(N)=Nc1ccc(Oc2cccc(Oc3ccc(Cl)c(C(F)(F)F)c3)c2)cn1', '1 (yes)'),
  ('CC1(COc2ccc3ncc(C#Cc4cncc(C(=O)Nc5cccc(C(F)(F)F)c5)c4)n3n2)COC1', '0 (no)'),
  ('Nc1cc(F)ccc1NC(=O)c1ccc(NC(=O)C/C=C/c2cccnc2)cc1', '0 (no)'),
  ('Cc1occc1-c1nc2s/c(=C/c3ccc(-c4cc(C(F)(F)F)ccc4Cl)o3)c(=O)n2n1', '0 (no)'),
  ('O=C(Cn1c(-c2ccccc2)nc2cc(Cl)c(Cl)cc21)N=Nc1c(O)[nH]c2ccc(Cl)cc12', '0 (no)');

---

Readings of growth for the listed compounds
Test system: OVCAR-5 ovarian
Assay info: NCI-60 one-dose screen, 48 h (100 = growth as untreated, 0 = no growth, -100 = all killed)
Experimental setup: 10 µM unless noted
Compounds without any hit were thinned out: in the full panel of roughly 83,000, 20% have a hit.
Parameter measured: growth (%)

INSERT INTO measurements (compound, study_target, parameter_measured, unit_string, measured_number) VALUES
  ('O=C(CSc1nc2ccccc2c(=O)n1-c1ccccc1)Nc1cccc(C(=O)/C=C/c2ccccc2Cl)c1', 'OVCAR-5 ovarian', 'growth', '%', 108),
  ('Cc1c(Cl)cccc1S(=O)(=O)Nc1ccc2c(c1)C(=O)N(C1CCC(=O)NC1=O)C2=O (stereo not drawn)', 'OVCAR-5 ovarian', 'growth', '%', 97.3),
  ('Cc1ccc(-c2nn(-c3ccccc3)cc2/C=C/C(=O)c2ccc(NC(=O)CCCCCCC(=O)NO)cc2)cc1', 'OVCAR-5 ovarian', 'growth', '%', 79.2),
  ('c1cn2c(ccc3nc(-c4cn[nH]c4)c4c(c32)CCCC4)n1', 'OVCAR-5 ovarian', 'growth', '%', 99.4),
  ('C=C(C)[C@@H]1CC[C@]2(C(=O)NCCCCCN(CCC#N)CCC#N)CC[C@]3(C)[C@H](CC[C@@H]4[C@@]5(C)CCC(=O)C(C)(C)[C@@H]5CC[C@]43C)[C@@H]12', 'OVCAR-5 ovarian', 'growth', '%', 96.2),
  ('C=CCOc1cccc(/C=C2\SC(=S)N(C3CC(=O)N(c4ccc(Br)cc4)C3=O)C2=O)c1 (stereo not drawn)', 'OVCAR-5 ovarian', 'growth', '%', 108),
  ('COc1cc(Nc2c(C#N)cnn3cc(-c4cnn(CC(C)(C)O)c4)cc23)ccc1Cl', 'OVCAR-5 ovarian', 'growth', '%', 43.8),
  ('N#Cc1cccc(CN2CCC3=C(C2)C(=O)N(Cc2ccc(Cl)cc2)C2=NCCN23)c1', 'OVCAR-5 ovarian', 'growth', '%', 38.6);

---

Test system: COLO 205 colon
Assay info: NCI-60 one-dose screen, 48 h
Experimental setup: 10 µM unless noted
About 83,000 compounds went through this panel and 20% of them were active in at least one assay; those are over-represented in the sample as a whole. Calls of active or inactive are those of the source. How the source made its calls: active means growth percent below 10; inactive means the rest.
Labels: 1.0 (active), 0.0 (inactive)

INSERT INTO measurements (compound, class_assignment) VALUES
  ('Clc1cccc(/C=N/Nc2nc(N/N=C/c3cccc(Cl)c3Cl)nc(N3CCCCC3)n2)c1Cl', 0.0),
  ('COc1ccc(C(=O)Nc2ncc(Cc3ccccc3Cl)s2)cc1', 1.0),
  ('CS(=O)(=O)Nc1cc(-c2ccc3ncc(C#N)c(NCc4ccccc4F)c3c2)cnc1Cl', 1.0),
  ('COCCNc1ccc2ncc(C#Cc3cncc(C(=O)Nc4ccc(CN5CCN(C)CC5)c(C(F)(F)F)c4)c3)n2n1', 1.0),
  ('NC(N)=Nc1ccc(Oc2cccc(Nc3ccc(Cl)cc3)c2)cn1', 1.0),
  ('O=C1CCCc2nc(Nc3ccc(S(=O)(=O)Nc4ccc([N+](=O)[O-])cc4)cc3)ncc21', 0.0),
  ('COc1cc2oc(-c3cccc(N)c3)cc(=O)c2c(OC)c1OC', 0.0),
  ('COc1cccc(O)c1/C=C(/C)c1ccc2c(OC)cccc2[o+]1', 0.0),
  ('N#Cc1cccc(CN2CCC3=C(C2)C(=O)N(Cc2ccc(Cl)cc2)C2=NCCN23)c1', 1.0),
  ('CCOC(=O)C(=O)/C(=C\c1ccc(Cl)cc1)C(=O)N1C(=S)NC(=O)C1CC(C)C (centres undefined)', 0.0),
  ('CCOC(=O)C1=NNC(c2ccc(Cl)cc2)C1C(=O)N1C(=S)NC(=O)C1CC(C)C (centres undefined)', 0.0),
  ('COc1ccc(/C=N/NC2=NC3C(S2)N(C)C(=O)N3C)cc1 (centres undefined)', 1.0),
  ('CCN1CCN(Cc2ccc(C(=O)Nc3ccc(C)c(Oc4ccc(-c5[nH]nc6ncnc(N)c56)cc4)c3)cc2C(F)(F)F)CC1', 0.0),
  ('COc1ccc(C(=O)CSc2nc3c(c(Nc4ccc(S(N)(=O)=O)cc4)n2)CCCC3)cc1', 0.0),
  ('CCCCCc1ccc(S(=O)(=O)Nc2cccc(-c3csc(NC(=O)CCCCCN4CCN(C)CC4)n3)c2)cc1', 1.0),
  ('Nc1nc(Nc2ccccc2SSc2ccccc2Nc2nc(N)nc(-c3ccc4ccccc4c3)n2)nc(-c2ccc3ccccc3c2)n1', 0.0),
  ('C=CCn1c(SCC(=O)Nc2ccc(C(=O)/C=C/c3ccc(Br)cc3)cc2)nnc1-c1c[nH]c2ccccc12', 0.0),
  ('CCCCCc1ccc(S(=O)(=O)Nc2cccc(-c3csc(NC(=O)CN4CCN(CCO)CC4)n3)c2)cc1', 0.0),
  ('NC(N)=Nc1ccc(Oc2cccc(Nc3ccc(Cl)c(C(F)(F)F)c3)c2)cc1', 1.0);
